Test system: OVCAR-3 ovarian
test-name: NCI-60 one-dose screen, 48 h (100 = growth as untreated, 0 = no growth, -100 = all killed)
recorded-conditions: 10 µM unless noted
This is part of a sample that, as a whole, favours compounds with a hit. Of some 83,000 tested, about 20% had one in any assay.

[
  {
    "compound": "CC1=C(C(=O)OC(C)C)C(c2ccc(O)cc2)NC(=O)N1 (centres undefined)",
    "system-under-test": "OVCAR-3 ovarian",
    "unit-abbreviation": "%",
    "growth": 108
  },
  {
    "compound": "COc1ccc2[nH]c(=O)c(CSc3ccccc3Nc3nccc(-c4ccc5c(c4)OCO5)n3)cc2c1",
    "system-under-test": "OVCAR-3 ovarian",
    "unit-abbreviation": "%",
    "growth": 92.3
  },
  {
    "compound": "O=C1NC(=S)/C(=C/c2cn(-c3ccccc3)nc2-c2ccccc2)S1",
    "system-under-test": "OVCAR-3 ovarian",
    "unit-abbreviation": "%",
    "growth": 36.7
  },
  {
    "compound": "CN(C)c1ccc(/C=C/c2n(Cc3ccc4ccccc4c3)c3ccccc3[n+]2Cc2ccc3ccccc3c2)cc1",
    "system-under-test": "OVCAR-3 ovarian",
    "unit-abbreviation": "%",
    "growth": -45.2
  },
  {
    "compound": "COc1ccc2c(c1)C(Sc1ccc(Cl)cc1)c1c(nc(N)c(C#N)c1N)O2 (centres undefined)",
    "system-under-test": "OVCAR-3 ovarian",
    "unit-abbreviation": "%",
    "growth": 93.2
  },
  {
    "compound": "COc1cc(C=O)ccc1OC(=O)c1cc(-c2ccc(C)cc2)n(-c2ccc(S(C)(=O)=O)cc2)n1",
    "system-under-test": "OVCAR-3 ovarian",
    "unit-abbreviation": "%",
    "growth": 119
  },
  {
    "compound": "COc1ccc(NC(=O)NN2C(=O)c3ccccc3N(C)C2c2ccc(OC)cc2)cc1 (centres undefined)",
    "system-under-test": "OVCAR-3 ovarian",
    "unit-abbreviation": "%",
    "growth": 89.8
  },
  {
    "compound": "COc1ccc(N=Nc2c(N)nn3c(-c4cc5ccccc5oc4=O)ccnc23)cc1",
    "system-under-test": "OVCAR-3 ovarian",
    "unit-abbreviation": "%",
    "growth": 74.3
  },
  {
    "compound": "COc1cccc2nc(Nc3cccc(NC(=O)c4ccc(CN5CCN(C)CC5)c(C(F)(F)F)c4)c3)ccc12",
    "system-under-test": "OVCAR-3 ovarian",
    "unit-abbreviation": "%",
    "growth": -36.6
  }
]
